targetEntity: T1, Ep-CAM (UniProt P16422 24-265, limits assumed)
T1 construct: Immobilised on the Biacore chip; construct not described
T1 sequence (looked up): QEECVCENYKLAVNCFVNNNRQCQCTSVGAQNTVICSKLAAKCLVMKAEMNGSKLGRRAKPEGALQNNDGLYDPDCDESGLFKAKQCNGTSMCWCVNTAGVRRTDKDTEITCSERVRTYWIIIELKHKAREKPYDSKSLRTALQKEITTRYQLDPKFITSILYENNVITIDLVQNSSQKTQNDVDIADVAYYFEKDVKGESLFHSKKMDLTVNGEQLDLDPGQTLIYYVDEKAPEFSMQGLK
methodDescription: Biacore, Fab periplasmic extract
Answer each item with its documented fold difference in affinity vs original ING-1.
Numbers only, in fold.

Here is how some binders turned out for fold difference in affinity vs original ING-1.
INSERT INTO measurements (binder, val) VALUES
  ('ING-1 Fab, light chain Y37I (Fab, V domains shown, Fab in periplasmic extract) VH: QIQLVQSGPELKKPGETVKISCKASGYTFTKYGMNWVKQAPGKGLKWMGWINTYTEEPTYGDDFKGRFAFSLETSASTANLQINNLKSEDTATYFCARFGSAVDYWGQGTSVTVSS VL: DIVMTQAAFSNPVTLGTSGSISCRSSKSLLHSNGITILYWYLQKPGQSPQLLIYQMSNLASGVPDRFSSSGSGTDFTLRISRVEAEDVGVYYCAQNLELPRTFGGGTKLEMKR', 0.9),
  ('ING-1 Fab, light chain P100A (Fab, V domains shown, Fab in periplasmic extract) VH: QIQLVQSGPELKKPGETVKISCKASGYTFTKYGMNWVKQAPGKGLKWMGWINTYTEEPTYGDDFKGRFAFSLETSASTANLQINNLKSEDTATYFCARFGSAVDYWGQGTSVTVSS VL: DIVMTQAAFSNPVTLGTSGSISCRSSKSLLHSNGITYLYWYLQKPGQSPQLLIYQMSNLASGVPDRFSSSGSGTDFTLRISRVEAEDVGVYYCAQNLELARTFGGGTKLEMKR', 0.05),
  ('ING-1 Fab, light chain M56T (Fab, V domains shown, Fab in periplasmic extract) VH: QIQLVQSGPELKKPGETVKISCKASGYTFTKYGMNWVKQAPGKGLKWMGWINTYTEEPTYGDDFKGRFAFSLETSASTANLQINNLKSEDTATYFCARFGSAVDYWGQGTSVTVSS VL: DIVMTQAAFSNPVTLGTSGSISCRSSKSLLHSNGITYLYWYLQKPGQSPQLLIYQTSNLASGVPDRFSSSGSGTDFTLRISRVEAEDVGVYYCAQNLELPRTFGGGTKLEMKR', 0.8);

Given the entry ING-1 Fab, light chain I35L (Fab, V domains shown, Fab in periplasmic extract) VH: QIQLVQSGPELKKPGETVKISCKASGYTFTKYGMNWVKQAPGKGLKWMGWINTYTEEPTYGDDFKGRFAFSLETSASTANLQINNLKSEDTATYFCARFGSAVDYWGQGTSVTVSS VL: DIVMTQAAFSNPVTLGTSGSISCRSSKSLLHSNGLTYLYWYLQKPGQSPQLLIYQMSNLASGVPDRFSSSGSGTDFTLRISRVEAEDVGVYYCAQNLELPRTFGGGTKLEMKR , report its measured fold difference in affinity vs original ING-1.
0.6
